- target.under.test: Cellular tumor antigen p53 (Homo sapiens) (UniProt P04637)
- Sequence (P04637 whole entry, looked up): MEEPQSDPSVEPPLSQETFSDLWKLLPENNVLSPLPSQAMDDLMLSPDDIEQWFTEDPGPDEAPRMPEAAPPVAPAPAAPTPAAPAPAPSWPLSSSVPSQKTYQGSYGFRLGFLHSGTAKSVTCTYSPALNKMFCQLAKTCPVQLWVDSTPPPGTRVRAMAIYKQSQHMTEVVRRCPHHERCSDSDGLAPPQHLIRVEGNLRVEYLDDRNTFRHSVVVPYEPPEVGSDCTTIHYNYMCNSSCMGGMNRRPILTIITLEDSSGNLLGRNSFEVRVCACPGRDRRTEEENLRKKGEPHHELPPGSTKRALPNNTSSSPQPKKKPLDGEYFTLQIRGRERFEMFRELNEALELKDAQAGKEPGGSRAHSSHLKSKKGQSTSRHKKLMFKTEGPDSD
- assay.notes: TOX21_p53_BLA_p5_ratio: Tox21 HCT-116 p53 Agonism Beta-lactamase Assay, Ratio, Phase 5 (AID 2283599)
- Experimental: TOX21_p53_BLA_p5 is a cell-based, single-readout assay that uses HCT116, a human intestinal cell line, […] in a 1536-well plate.TOX21_p53_BLA_p5_ratio is an assay readout measuring reporter gene via receptor activity and designed using inducible reporter (beta lactamase induction) detected with GAL4 b-lactamase reporter gene. […] This assay endpoint, TOX21_p53_BLA_p5_ratio, was analyzed in the positive analysis fitting direction relative to DMSO as the negative control and baseline of activity. […]
Results filed as inconclusive are left out. Active and inactive are the calls of the source. The calls were made as follows: active = hit-call score of the fitted dose curve at least 0.9, where 1 is the maximum; inconclusive = response in the unintended direction; inactive = score below 0.9.
Outcomes: active, inactive

{"columns": ["compound", "class"],
 "data": [
  ["BrCCCCCBr", "inactive"],
  ["C[C@]12O[C@H](C[C@]1(O)CO)n1c3ccccc3c3c4c(c5c6ccccc6n2c5c31)CNC4=O", "active"],
  ["CC1=CC(C)(C)Nc2ccccc21", "inactive"],
  ["NC[C@@H]1O[C@H](O[C@H]2[C@@H](O)[C@H](O[C@@H]3[C@@H](O)[C@H](N)C[C@H](N)[C@H]3O[C@H]3O[C@H](CO)[C@@H](O)[C@H](O)[C@H]3N)O[C@@H]2CO)[C@H](N)[C@@H](O)[C@@H]1O", "inactive"],
  ["Clc1ccc2c(c1)CCc1cccnc1C2=C1CCNCC1", "inactive"],
  ["C#CCN(C)CCCOc1ccc(Cl)cc1Cl", "inactive"],
  ["NC(N)=NCC1COc2ccccc2O1 (stereo not drawn)", "inactive"],
  ["O=C=Nc1ccc(Cc2ccc(N=C=O)cc2)cc1", "inactive"],
  ["CCCCCCCC(=O)Oc1c(Br)cc(C#N)cc1Br", "inactive"],
  ["CCc1nnc(NS(=O)(=O)c2ccc(N)cc2)s1", "inactive"],
  ["Cc1ncc(CO)c(CN)c1O", "inactive"],
  ["COc1cc(NS(=O)(=O)c2ccc(N)cc2)nc(OC)n1", "inactive"],
  ["COc1cc(C(=O)NCc2ccc(OCCN(C)C)cc2)cc(OC)c1OC", "inactive"],
  ["c1ccc(-c2ccc(C(c3ccccc3)n3ccnc3)cc2)cc1 (stereo not drawn)", "active"],
  ["FC(F)(F)C(F)(F)C(F)(F)C(F)(F)C(F)(F)C(F)(F)C(F)(F)C(F)(F)Br", "inactive"],
  ["C=C(C)C(=O)OCC[N+](C)(C)C", "active"],
  ["Cc1ncc([N+](=O)[O-])n1CC(C)O (stereo not drawn)", "inactive"],
  ["CN(C)c1ccc(CCO)cc1", "inactive"],
  ["CC(C)(COP(=O)(O)OP(=O)(O)OC[C@H]1O[C@@H](n2cnc3c(N)ncnc32)[C@H](O)[C@@H]1OP(=O)(O)O)C(O)C(=O)NCCC(=O)NCCS (stereo partly drawn)", "inactive"],
  ["CC(CN1CC(=O)NC(=O)C1)N1CC(=O)NC(=O)C1 (stereo not drawn)", "active"],
  ["CCCN(CCC)CCc1cccc2c1CC(=O)N2", "inactive"],
  ["CCN1CCN(c2cc3c(cc2F)c(=O)c(C(=O)O)cn3C2CC2)CC1", "inactive"],
  ["CCC(CC)(CC(=O)Nc1cccc(/C=C/c2nc(C3CCC3)cs2)c1)C(=O)O", "inactive"]
]}
